assay.details: Cytotoxicity against human L02 cells after 48 hrs in the dark by MTT assay
Assay type: cell-based
details: l02, 48 h
reported.endpoint: Activity

smi	reading
O=Cc1ccc(OP(=O)(NCCCl)NCCCl)cc1	Toxic
COc1ccc(-c2c3nc(c(-c4ccc(OC)cc4)c4ccc([nH]4)c(-c4ccc(OP(=O)(NCCCl)NCCCl)cc4)c4nc(c(-c5ccc(OC)cc5)c5ccc2[nH]5)C=C4)C=C3)cc1	Non-toxic
O=P(NCCCl)(NCCCl)Oc1ccc(-c2c3nc(c(-c4ccc(Br)cc4)c4ccc([nH]4)c(-c4ccc(Br)cc4)c4nc(c(-c5ccc(Br)cc5)c5ccc2[nH]5)C=C4)C=C3)cc1	Non-toxic

* * *

assay.details: Cytotoxicity against human L02 cells after 48 hrs in the dark by MTT assay
Assay type: cell-based
details: l02, 48 h

smi	Activity
Cc1ccc(-c2c3nc(c(-c4ccc(C)cc4)c4ccc([nH]4)c(-c4ccc(OP(=O)(NCCCl)NCCCl)cc4)c4nc(c(-c5ccc(C)cc5)c5ccc2[nH]5)C=C4)C=C3)cc1	Non-toxic
O=P(NCCCl)(NCCCl)Oc1ccc(-c2c3nc(c(-c4ccc(Cl)cc4)c4ccc([nH]4)c(-c4ccc(Cl)cc4)c4nc(c(-c5ccc(Cl)cc5)c5ccc2[nH]5)C=C4)C=C3)cc1	Non-toxic
O=P(NCCCl)(NCCCl)Oc1ccc(-c2c3nc(c(-c4ccccc4)c4ccc([nH]4)c(-c4ccccc4)c4nc(c(-c5ccccc5)c5ccc2[nH]5)C=C4)C=C3)cc1	Non-toxic
